All figures here come from patent US20240294661A1.

system-under-test: membrane-bound tissue factor (TF) on cells (human, UniProt P13726 33-295)
assay-method-text: cell-based or functional assay
endpoint: % kill at 10 µg/mL, HPAF-II cells, ADC killing assay (%)
# unit: % | format: bare number

Example results:
[[record]]
binder = "HuMab-TF-098-mcMMAF (antibody, IgG1, V domains shown, mcMMAF drug-linker alkylated to cysteines of the reduced antibody (positions not given), DAR 4.0 by RP-HPLC, 3.9 by HIC) VH: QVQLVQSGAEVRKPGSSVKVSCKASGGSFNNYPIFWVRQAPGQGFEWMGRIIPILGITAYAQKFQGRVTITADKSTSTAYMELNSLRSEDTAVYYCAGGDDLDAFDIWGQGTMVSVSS VL: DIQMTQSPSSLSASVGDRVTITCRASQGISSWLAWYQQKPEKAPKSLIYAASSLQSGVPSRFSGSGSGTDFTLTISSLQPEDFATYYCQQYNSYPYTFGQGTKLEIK"
reading_unit = "%"
result = 73

[[record]]
binder = "HuMab-TF-011-vcMMAE (antibody, IgG1, V domains shown, vcMMAE drug-linker alkylated to cysteines of the reduced antibody (positions not given), DAR 3.9 by RP-HPLC, 3.9 by HIC) VH: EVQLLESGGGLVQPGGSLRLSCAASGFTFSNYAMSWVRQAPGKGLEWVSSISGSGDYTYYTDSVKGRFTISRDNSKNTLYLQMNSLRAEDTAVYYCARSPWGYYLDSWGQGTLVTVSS VL: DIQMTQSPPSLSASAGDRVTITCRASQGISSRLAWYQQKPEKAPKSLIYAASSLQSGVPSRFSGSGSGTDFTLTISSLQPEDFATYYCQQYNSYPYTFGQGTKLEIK"
reading_unit = "%"
result = 71


Prompt: // % kill at 10 µg/mL, HPAF-II cells, ADC killing assay lookup, key: HuMab-TF-111-mcMMAF (antibody, IgG1, V domains shown, mcMMAF drug-linker alkylated to cysteines of the reduced antibody (positions not given), DAR 4.1 by RP-HPLC, 4.2 by HIC) VH: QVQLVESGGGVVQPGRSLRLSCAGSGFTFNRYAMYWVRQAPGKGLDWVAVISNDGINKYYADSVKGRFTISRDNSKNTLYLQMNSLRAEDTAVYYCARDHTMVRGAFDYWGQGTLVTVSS VL: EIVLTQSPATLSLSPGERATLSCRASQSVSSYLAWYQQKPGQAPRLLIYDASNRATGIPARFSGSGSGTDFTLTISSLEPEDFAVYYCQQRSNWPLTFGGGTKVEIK
Completion: 74
